Each entry below lists one item and its recorded pKi value.
tested-system: T1, human GIP receptor (human, UniProt P48546 22-466)
T1 construct: whole, on cells; also called hGIPR; human glucose-dependent insulinotropic polypeptide receptor
T1 sequence (looked up): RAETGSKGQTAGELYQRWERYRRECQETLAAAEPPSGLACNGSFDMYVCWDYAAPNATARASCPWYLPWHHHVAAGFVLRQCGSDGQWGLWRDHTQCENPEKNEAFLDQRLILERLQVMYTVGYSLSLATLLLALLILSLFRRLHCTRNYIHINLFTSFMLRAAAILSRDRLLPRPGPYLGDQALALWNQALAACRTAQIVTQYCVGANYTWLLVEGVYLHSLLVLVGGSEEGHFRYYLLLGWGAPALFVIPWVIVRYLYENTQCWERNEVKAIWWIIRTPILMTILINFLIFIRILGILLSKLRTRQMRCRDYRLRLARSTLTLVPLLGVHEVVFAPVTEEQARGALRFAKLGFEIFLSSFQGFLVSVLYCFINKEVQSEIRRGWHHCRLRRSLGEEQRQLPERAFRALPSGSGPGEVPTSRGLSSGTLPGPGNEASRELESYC
method-notes: SPA competition vs [125I]-GIP, hGIPR membranes
pKi: −log10 of the molar value.
quantity-name: pKi

{"columns": ["binder", "quantity-name", "value-reported"],
 "data": [
  ["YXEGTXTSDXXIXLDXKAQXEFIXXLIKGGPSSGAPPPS (Aib2, αMeF(2F)6, 4Pal10, Aib11, αMeL13, Orn16, K17(Z1), Aib20, D-Glu24, αMeY25, K28(Z1), C-term NH2; Z1=AEEA-Aoc-CO-(CH2)12-CO2H)", "pKi", 10.33],
  ["YXEGTXTSDYXIXLDXKAQXEFIXXLIEGGKSSGAPPPS (Aib2, αMeF(2F)6, αMeS11, αMeL13, Orn16, K17(Z1), Aib20, D-Glu24, αMeY25, K31(Z1), C-term NH2; Z1=AEEA2-(γ-Glu)-CO-(CH2)12-CO2H)", "pKi", 10.24],
  ["YXEGTXTSDXSIXLDXKAQXEFIXXLIEGKPSSGAPPPS (Aib2, αMeF(2F)6, 4Pal10, αMeL13, Orn16, K17(Z1), Aib20, D-Glu24, αMeY25, K30(Z1), C-term NH2; Z1=AEEA2-(γ-Glu)-CO-(CH2)12-CO2H)", "pKi", 10.11]
]}
